B1: EHEE_rd4_0726 (parent)
chain: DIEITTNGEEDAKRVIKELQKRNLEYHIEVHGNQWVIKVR

Variants of: B1
run.description: folding stability dG (cDNA display proteolysis); higher = more stable
experimental.conditions: PBS, room temperature
Outcome: yes (1) for folding stability dG of at least 2 kcal/mol; no (0) for anything lower.

Worked examples follow.
## Input Has `Y26H` a recorded folding stability dG greater than or equal to 2 kcal/mol?
## Output no (0)

## Input Does the variant `V15E` have recorded folding stability dG that is 2 kcal/mol or more?
## Output no (0)

## Input Does the variant `A12E` have recorded folding stability dG that is 2 kcal/mol or more?
## Output no (0)

## Input Given `E10W` , state whether its folding stability dG is at least 2 kcal/mol.
## Output yes (1)

Further cases:
## Input Entry `E9L` : is its folding stability dG no less than 2 kcal/mol?
## Output yes (1)

## Input Form field: folding stability dG at least 2 kcal/mol? Entry: `I4F`
## Output yes (1)

## Input // inclusive: folding stability dG at least 2 kcal/mol? input: `E3P`
## Output no (0)

## Input Record `V15H` ; criterion: folding stability dG no lower than 2 kcal/mol. Met?
## Output no (0)

## Input Reported folding stability dG reaches at least 2 kcal/mol for `V36L` ?
## Output no (0)

## Input # check: folding stability dG of `E25A` is greater than or equal to 2 kcal/mol
## Output yes (1)
